These entries and their values trace back to patent US20250154169A1.

Each entry below lists one item and its recorded pIC50 value.
- System: Target C mRNA
- Procedure Summary: Splicing RT-qPCR gene panel, Target C canonical junction (CJ) mRNA
- Type: cell-based, human
- Assay Setup: Homo sapiens, Tables 4A/4B, read-out: Target C (IC50, decrease in CJ mRNA, gene panel)
pIC50: −log10 of the molar value.

Reference set, count: 5
Compound	pIC50
Cc1cn2cc(NC(=O)c3ccc(N4CCNCC4)c4cn(CC(=O)N(C)C)nc34)cc(F)c2n1 [Compound 309]	< 5.00
Cc1cn2cc(NC(=O)c3c(F)cc(N4CCC(N(C)C)C4)c4cn(C)nc34)cc(F)c2n1 (stereo in doubt) [Compound 464]	5.00 to 6.00
CCn1cc2c(N3CCNCC3)cc(F)c(C(=O)Nc3cc(F)c4nc(C)cn4c3)c2n1 [Compound 474]	5.00 to 6.00
Cc1nc2c(F)cc(NC(=O)c3ccc(N4CCNCC4)c4cn(C)nc34)cc2o1 [Compound 234]	5.00 to 6.00
Cc1cn2cc(NC(=O)c3ccc(N4CCNCC4)c4cc(CO)nn34)cc(F)c2n1 [Compound 955]	< 5.00

Name the reported pIC50 value associated with the compound CCn1cc2c(N3CC[C@H](N(C)C)C3)cc(F)c(C(=O)Nc3cc(F)c4nc(C)cn4c3)c2n1 [Compound 472]
< 5.00

Name the reported pIC50 value associated with the compound Cc1cn2cc(NC(=O)c3ccc(N4CC[C@@H](NC5(CF)CC5)C4)c4cn(C)nc34)cc(F)c2n1 [Compound 461]
< 5.00

Name the reported pIC50 value associated with the compound Cc1cc2c(N3CCNCC3)ccc(C(=O)Nc3ccc4cn(C)nc4c3)c2o1 [Compound 261]
< 5.00

* * *

Each entry below lists one item and its recorded pIC50 value.
- Test system: MYB mRNA
- Procedure Summary: Splicing RT-qPCR assay, MYB canonical (CJ) and alternative (AJ) junction mRNA
- Format: cell-based, human
- Assay Setup: Homo sapiens, 24 h, A673 or K562 cells, 24 hours compound treatment, RT-qPCR; read-out: MYB CJ (IC50, decrease in canonical junction mRNA)
pIC50: −log10 of the molar value.

Reference set, count: 3
Compound	pIC50
Cc1cn2cc(NC(=O)c3ccc(N4CCNCC4)c4cc(C)oc34)cc(F)c2n1 [Compound 142]	6.00 to 7.00
Cc1cn2cc(NC(=O)c3ccc(N4CCNCC4)c4cn(CC5(O)COC5)nc34)cc(F)c2n1 [Compound 384]	< 5.00
Cc1cn2cc(NC(=O)c3ccc(N4CCC(N)CC4)c4cn(C)nc34)cc(F)c2n1 [Compound 402]	> 7.00

Please provide the recorded pIC50 for CCn1cc2c(N3C[C@H](F)[C@H](NC)C3)ccc(C(=O)Nc3cc(F)c4nc(C)cn4c3)c2n1 [Compound 585] , tested on MYB mRNA.
6.00 to 7.00

Please provide the recorded pIC50 for CNC1CCN(c2ccc(C(=O)Nc3cn4cc(C)nc4c(OC)n3)c3nn(CCOC)cc23)C1 (stereo not drawn) [Compound 418] , tested on MYB mRNA.
6.00 to 7.00

Please provide the recorded pIC50 for Cc1cn2cc(NC(=O)c3ccc(N4CCC(CN)C4)c4cn(C)nc34)cc(F)c2n1 (stereo not drawn) [Compound 327] , tested on MYB mRNA.
6.00 to 7.00
